Test system: ATP;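 note: ATP exposure 15 min at 22 °C before imaging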
Assay: switch fluorescence ratio, 500 uM ATP over buffer (Cy3 cluster intensity, sum of 5 cycles each) (fold (ratio)); higher = stronger signal-on switching upon ATP binding; sequences stand for … in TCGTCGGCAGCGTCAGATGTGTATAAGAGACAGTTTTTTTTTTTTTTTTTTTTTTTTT…TC
Details: aptamer strand: ATP DNA aptamer (quencher-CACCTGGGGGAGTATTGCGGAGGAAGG + anchor), 100 nM annealed; ATP concentration: 500 uM
Below, each of the sequences is paired with its reported switch fluorescence ratio value.

sequence-content	system	switch fluorescence ratio
CCTGTAGGTA	ATP	1.01
ATGCGGGGGG	ATP	1.01
GGGTTGGGGC	ATP	0.999
TTATGTCGAG	ATP	0.978
AACGAGGGGA	ATP	0.972
TGGGTTAGGT	ATP	0.977
CATTGCGGGA	ATP	1.02
GAGACAAGGA	ATP	0.971
GGCGAAGGCC	ATP	0.973
GACTGTGATG	ATP	0.971
CTTGAGTGTG	ATP	0.983
CCGGGTCGGG	ATP	1.01
GTAGGCGGGG	ATP	0.99
TTTTGTCAAA	ATP	1.02
GGTGGAAAGG	ATP	0.982
CGGGATTTTT	ATP	0.973
CATCGAGAGG	ATP	1.01
AGGTTCTCTG	ATP	0.994
ACTGGGGTTT	ATP	0.982
GGATTTGGTA	ATP	0.978
TATTATGGGT	ATP	0.982

----------
Test system: ATP;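 note: ATP exposure 15 min at 22 °C before imaging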
Test: switch fluorescence ratio, 500 uM ATP over buffer (Cy3 cluster intensity, sum of 5 cycles each) (fold (ratio)); higher = stronger signal-on switching upon ATP binding; sequences stand for … in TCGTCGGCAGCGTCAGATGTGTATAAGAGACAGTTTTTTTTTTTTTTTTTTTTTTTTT…TC
Conditions: aptamer strand: ATP DNA aptamer (quencher-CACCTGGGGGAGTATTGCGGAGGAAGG + anchor), 100 nM annealed; ATP concentration: 500 uM
Below, each of the sequences is paired with its reported switch fluorescence ratio value.

sequence-content	system	switch fluorescence ratio
GAATATGCCG	ATP	0.972
TTAATTCCGT	ATP	1.02
GTTTGGTTAT	ATP	0.995
TTAAGGGGAT	ATP	1
CCTTAATTTG	ATP	1.01
GGGGTTGTTA	ATP	0.988
GTTCATGGTA	ATP	0.99
GGGTATTATT	ATP	1.02
TGATATTTGT	ATP	1.01
GACTCGAGGG	ATP	0.99
ATGCCGGTGT	ATP	0.996
GGGATAGGCA	ATP	1.01
GGGGGTTCAG	ATP	0.978
TTACGATTTT	ATP	0.993
GACGTTTTCC	ATP	0.995
AGGCTTTGG	ATP	0.999
TGGGCCAGTT	ATP	0.981
CAGGATAGGC	ATP	1
AATAGTAGGG	ATP	1.01
CGGGGGGAAG	ATP	1.01
GGGCTTGGGG	ATP	0.999
GTGGGTATAC	ATP	1.01
TGGGGAAGCG	ATP	0.988
GGGATGGTGG	ATP	0.991
ATACTTGGCT	ATP	0.992
TATTCGGGGT	ATP	0.99
CAGGTTTAAG	ATP	0.975
ACGAGGGTTG	ATP	1.01
CACTGGGGGA	ATP	0.995

----------
Below, each of the sequences is paired with its reported switch fluorescence ratio value.
Test system: ATP;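 note: ATP exposure 15 min at 22 °C before imaging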
Test: switch fluorescence ratio, 500 uM ATP over buffer (Cy3 cluster intensity, sum of 5 cycles each) (fold (ratio)); higher = stronger signal-on switching upon ATP binding; sequences stand for … in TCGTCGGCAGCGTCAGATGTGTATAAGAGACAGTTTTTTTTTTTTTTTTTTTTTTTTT…TC
Details: aptamer strand: ATP DNA aptamer (quencher-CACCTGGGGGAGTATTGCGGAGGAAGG + anchor), 100 nM annealed; ATP concentration: 500 uM

sequence-content	switch fluorescence ratio
CATGTGGTCA	1.03
TGAAAATCGG	0.965
TGTTGCCAAT	1.01
GGGGGAACAC	1.05
ACGGACGGGG	1.11
AGGGAGGAGG	0.971
GGCGCCGTTT	0.986
GCGGGGGTCC	1.17
ACGTAGTTTC	1.05
ACCAGGCAGC	1.12
TTCGGGGGCT	1.01
TTCGTACGGG	1.03
CGCAAAGATT	1.06
CTCCTTTTAT	1.03
AAATGCTTAT	1.04
AATTTGTCCG	0.992
GAAACAGTGT	0.973
ATCGATTGAT	1.02
GCGTGCCTCG	1.02
TTGGCAAAGG	1.1
TATCTTTGGG	0.981
TACCGTACGA	1.5
ATCGGAGGCA	1.01
GAAAGTGCAA	1.09
TGCAAGGGGG	1.06
ATTTTTTCGT	1.04
GAAAACATAG	1.01
ACCACAGTTC	1.06
TTGTGGGGAG	0.97
TTTTTGTATT	1.03
AGGCATTGGC	0.997
CAATATAGTG	0.981
AGGAAGAGGC	1.08
ATTTTTTACG	1.02
GAGGGGGGCG	1.04
ATGATAGTCG	0.993
TGAGTACGGG	0.984
ATTGGTTAGG	1.01
CTAGGATTGA	0.992
GGGTTCTCAG	0.995
TTGAGGTTAT	1.02
TGGTTCAAGT	0.984
GGAGCGGGGG	1.02
AAGGTTACCG	1.04
CTGGGGGGGC	1.01
TACTTAAAGT	1
AATGGTGGCT	1.11
CTGAGTCAAT	2.23

----------
Tested on: ATP;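 note: ATP exposure 15 min at 22 °C before imaging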
Experiment: switch fluorescence ratio, 500 uM ATP over buffer (Cy3 cluster intensity, sum of 5 cycles each) (fold (ratio)); higher = stronger signal-on switching upon ATP binding; sequences stand for … in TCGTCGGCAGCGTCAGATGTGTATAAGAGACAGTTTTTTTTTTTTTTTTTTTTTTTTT…TC
Settings: aptamer strand: ATP DNA aptamer (quencher-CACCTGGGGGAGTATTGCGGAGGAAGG + anchor), 100 nM annealed; ATP concentration: 500 uM

sequence-content	system	switch fluorescence ratio
TCCTGGAGGA	ATP	0.989
GAACAAGGGA	ATP	1
ATTTTAGTGC	ATP	1.01
TTTAAACTTT	ATP	1.01
GCTTCCTTTT	ATP	1.01
TTAAATTTTG	ATP	1.02
GGGGGTAAAG	ATP	1.01
TTTCAGCT	ATP	0.977
TATTTATTTG	ATP	1.02
GGCTGCCGGG	ATP	1.02
GGGGAAAGTC	ATP	1

----------
Below, each of the sequences is paired with its reported switch fluorescence ratio value.
System: ATP;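 note: ATP exposure 15 min at 22 °C before imaging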
Test: switch fluorescence ratio, 500 uM ATP over buffer (Cy3 cluster intensity, sum of 5 cycles each) (fold (ratio)); higher = stronger signal-on switching upon ATP binding; sequences stand for … in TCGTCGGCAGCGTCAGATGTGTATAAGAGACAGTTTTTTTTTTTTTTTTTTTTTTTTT…TC
Settings: aptamer strand: ATP DNA aptamer (quencher-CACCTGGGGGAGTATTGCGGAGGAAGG + anchor), 100 nM annealed; ATP concentration: 500 uM

sequence-content	switch fluorescence ratio
GTGTTTGGCG	0.998
TATCTATCTT	0.994
GGGGTTTCTC	1.02

----------
Test system: ATP;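 note: ATP exposure 15 min at 22 °C before imaging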
Assay: switch fluorescence ratio, 500 uM ATP over buffer (Cy3 cluster intensity, sum of 5 cycles each) (fold (ratio)); higher = stronger signal-on switching upon ATP binding; sequences stand for … in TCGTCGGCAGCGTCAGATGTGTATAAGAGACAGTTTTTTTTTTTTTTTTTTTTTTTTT…TC
Conditions: aptamer strand: ATP DNA aptamer (quencher-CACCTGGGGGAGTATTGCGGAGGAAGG + anchor), 100 nM annealed; ATP concentration: 500 uM

sequence-content	system	switch fluorescence ratio
CATTTTCCGG	ATP	1.11
GCGTGATGCC	ATP	1.03
GGAGGGGGGA	ATP	1.09
GCGTTGTTCG	ATP	0.99
CGGGGTTGCA	ATP	0.978
TCGGGGCTGT	ATP	0.993
GGTGATGGGG	ATP	0.985
ACTATTGCGG	ATP	1.01
TGCCGGACGA	ATP	1.06
TATTCCTTTT	ATP	1.01
GGTACGAACG	ATP	1.29
TAATATCCTA	ATP	1
ATGTAATCTA	ATP	0.961
TTATTCCCAG	ATP	1.02
TTACCATTCG	ATP	1.02
GCTGCATATA	ATP	1.07
AATTTTTTTG	ATP	1.04
GGTGTGTTGC	ATP	0.998
CTGTGAAAAA	ATP	1.09
AAGGAGGGGG	ATP	1.02
GGTTATGAGG	ATP	0.994
CGCATCGCGT	ATP	1.02
GGCCCGTGCA	ATP	1
GGGGAAGTAC	ATP	1.53
TAATGCTAAT	ATP	1.07
GAGTAAAATT	ATP	1.13
TGCGATTCTG	ATP	0.978
TTTGATGATA	ATP	0.981
TGGCTCTGAG	ATP	0.997
TCGGTTTTGC	ATP	0.982
TCGACACTGA	ATP	1.06
GGGGAACGGC	ATP	0.963
GTATGAATTA	ATP	0.985
CATTAAGGGT	ATP	0.992
TATTTACCGC	ATP	1.13
GGAATCAGGA	ATP	0.991
AGCGTTGAGT	ATP	0.985
GAATTGATTT	ATP	1.01
TGGGCTATGC	ATP	0.986
ACAAGACTGT	ATP	1.04
TGCCTTTCGG	ATP	0.991
GCCTTCGAGG	ATP	1.03
CAGGGACCTG	ATP	1.03
TCCTATTGTG	ATP	1.03
AGCCTCCGGT	ATP	1.13
AAAAATGGGG	ATP	0.972
GTTGTTAAAT	ATP	1.01
GGACATTGG	ATP	1.03
